Let's look at some compounds and their measured melting point.

Query :: // melting point lookup, key: Cc1c(C(=O)NC2CCCCC2)nc(-c2ccc(Cl)cc2Cl)n1-c1ccc(C(F)(F)F)cc1
Result :: 178 to 179 °C

Query :: // melting point lookup, key: Cc1c(C(=O)NN2CCCCC2)nc(-c2cc(Cl)ccc2Cl)n1-c1ccccc1
Result :: 227 °C

Query :: // melting point lookup, key: Cc1c(C(=O)NN2CCCCC2)nc(-c2ccc(Cl)cc2C(F)(F)F)n1-c1ccc(Cl)cc1
Result :: 165 °C

Query :: // melting point lookup, key: O=C(NN1CCCCC1)c1cn(-c2ccc(Cl)cc2)c(-c2ccc(Cl)cc2F)n1
Result :: 217 to 218 °C

Query :: // melting point lookup, key: CS(=O)(=O)c1c(C(=O)NN2CCCCC2)nc(-c2ccc(Cl)cc2Cl)n1-c1ccc(Cl)cc1
Result :: 181 to 185 °C (dec.)

Query :: // melting point lookup, key: O=C(NN1CCCCC1)c1cn(-c2ccc(Cl)cc2)c(-c2ccc(Cl)cc2C(F)(F)F)n1
Result :: 219 °C

Query :: // melting point lookup, key: Cc1c(C(=O)NN2CCCCC2)nc(-c2ccc(Cl)cc2Cl)n1-c1ccc(F)cc1
Result :: 223 to 224 °C

Query :: // melting point lookup, key: CCc1c(C(=O)NC2CCCCC2)nc(-c2ccc(Cl)cc2Cl)n1-c1ccc(Cl)cn1
Result :: 149 °C

Query :: // melting point lookup, key: Cc1c(C(=O)NC2CC3CCC2C3)nc(-c2ccc(Cl)cc2Cl)n1-c1ccc(Cl)cc1 (centres unmarked)
Result :: 194 to 195 °C

Query :: // melting point lookup, key: COc1ccc(-n2c(-c3ccc(Cl)cc3Cl)nc(C(=O)NC3CCCCC3)c2C)cc1
Result :: 160 to 161 °C

Query :: // melting point lookup, key: Cc1ccc(-c2nc(C(=O)NC3CCCCC3)c(C)n2-c2ccc(Cl)cc2)n1C
Result :: 188 to 189 °C

###

Let's look at some compounds and their measured hCB1 pA2.
# experimental target: human cannabinoid CB1 receptor (Homo sapiens, UniProt P21554)
# Sequence (P21554 whole entry): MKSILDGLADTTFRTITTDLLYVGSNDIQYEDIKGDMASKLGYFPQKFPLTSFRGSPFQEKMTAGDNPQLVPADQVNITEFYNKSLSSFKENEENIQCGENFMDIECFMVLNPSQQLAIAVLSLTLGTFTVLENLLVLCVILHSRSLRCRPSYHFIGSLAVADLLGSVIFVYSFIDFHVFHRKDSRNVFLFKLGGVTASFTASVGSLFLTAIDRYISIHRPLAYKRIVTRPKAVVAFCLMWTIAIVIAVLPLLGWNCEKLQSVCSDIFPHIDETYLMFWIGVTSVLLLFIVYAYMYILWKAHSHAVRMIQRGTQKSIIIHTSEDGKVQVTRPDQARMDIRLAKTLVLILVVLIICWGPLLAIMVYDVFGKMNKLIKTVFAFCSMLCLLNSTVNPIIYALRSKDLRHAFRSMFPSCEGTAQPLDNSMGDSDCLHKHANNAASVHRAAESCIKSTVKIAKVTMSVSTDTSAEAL
# assay overview: Cannabinoid CB1 antagonistic activity, forskolin-induced cAMP accumulation in CHO cells
# Format: cell-based
# Design: expressed in transfected cells; host or cells: CHO cells
# assay context: antagonism of CB1 agonist (e.g. CP-55,940 or (R)-WIN-55,212-2) effect on forskolin-induced cAMP accumulation; CHO cells expressing human CB1
Answer using only a numeral; do not append any unit.

Previously resolved entries follow.
{"compound": "O=C(NN1CCCCC1)c1cn(-c2ccc(Cl)cc2)c(-c2ccc(Cl)cc2Cl)n1", "measured endpoint": "hCB1 pA2", "recorded number": 8.2}
{"compound": "Cc1c(C(=O)NN2CC3CCCC3C2)nc(-c2ccc(Cl)cc2Cl)n1-c1ccc(Cl)cc1 (stereo not shown)", "measured endpoint": "hCB1 pA2", "recorded number": 9.8}
{"compound": "N#Cc1c(C(=O)NN2CCCCC2)nc(-c2ccc(Cl)cc2Cl)n1-c1ccc(Cl)cc1", "measured endpoint": "hCB1 pA2", "recorded number": 8.6}
{"compound": "Cc1c(C(=O)NN2CCOCC2)nc(-c2ccc(Cl)cc2Cl)n1-c1ccc(Cl)cc1", "measured endpoint": "hCB1 pA2", "recorded number": 7.5}

Query :: // hCB1 pA2 lookup, key: Cc1c(C(=O)NN2CCCCC2)nc(-c2ccc(Cl)cc2Cl)n1-c1ccc(F)cc1
Result :: 7.7

Query :: // hCB1 pA2 lookup, key: Cc1c(C(=O)NC2CCCC2)nc(-c2ccc(Cl)cc2Cl)n1-c1ccc(Cl)cc1
Result :: 8.9

###

# experimental target: human cannabinoid CB1 receptor (Homo sapiens)
# assay overview: Cannabinoid CB1 antagonistic activity, forskolin-induced cAMP accumulation in CHO cells
# Type: cell-based
# Set-up: expressed in transfected cells; host or cells: CHO cells
# Protocol: The cannabinoid CB1 antagonistic activity of compounds of the invention was determined by functional studies using CHO cells in which human cannabinoid CB1 receptors were stably expressed. Adenylyl cyclase was stimulated using forskolin and measured by quantifying the amount of accumulated cyclic AMP. Concomitant activation of CB1 receptors by CB1 receptor agonists (e.g. CP-55,940 or (R)-WIN-55,212–2) can attenuate the forskolin-induced accumulation of cAMP in a concentration-dependent manner. […]
Mark T only for Kb values smaller than 10 nM; exact matches and larger values are F.

Completed entries (count: 7):
{"compound": "CC(C)(C)ONC(=O)c1cn(-c2ccc(Br)cc2)c(-c2ccc(Cl)cc2Cl)n1 [Example 23]", "assigned class": "T"}
{"compound": "O=C(NC1CCCCC1)c1cn(-c2ccc(Cl)cc2)c(-c2ccc(Cl)cc2C(F)(F)F)n1 [Example 38]", "assigned class": "F"}
{"compound": "COc1cc(Cl)ccc1-c1nc(C(=O)NC2CCCCC2)cn1-c1ccc(Cl)cc1 [Example 29]", "assigned class": "F"}
{"compound": "O=C(NN1CCCCC1)c1cn(-c2ccc(Cl)cc2)c(-c2ccc(Cl)cc2C(F)(F)F)n1 [Example 39]", "assigned class": "F"}
{"compound": "CC(C)(C)ONC(=O)c1cn(-c2ccc(Cl)cc2)c(-c2ccc(Cl)cc2Cl)n1 [Example 3]", "assigned class": "F"}
{"compound": "Cc1c(C(=O)NN2CCOCC2)nc(-c2ccc(Cl)cc2Cl)n1-c1ccc(Cl)cn1 [Example 52]", "assigned class": "T"}
{"compound": "O=C(NC1CCCCC1)c1cn(-c2ccc(C(F)(F)F)cc2)c(-c2ccc(Cl)cc2Cl)n1 [Example 48]", "assigned class": "T"}

Shift focus to the following entry.
Query :: Does this compound meet the criterion Kb < 10 nM? Cc1c(C(=O)NOC(C)(C)C)nc(-c2ccc(Cl)cc2Cl)n1-c1ccc(Br)cc1 [Example 16]
Result :: F

###

# experimental target: human cannabinoid CB1 receptor (Homo sapiens, UniProt P21554)
# assay overview: biochemical
# Assay type: binding
# Parameters: expressed in transfected cells; host or cells: Chinese hamster ovary (CHO) cells, membrane preparation
# assay context: hCB1 pKi, [3H]CP-55,940 radioligand; CHO cell membranes stably transfected with human CB1
Let's look at some compounds and their measured pKi.
Quick note: pKi means taking -log10 of the concentration in moles per liter.

Previously resolved entries follow.
{"compound": "O=C(NCc1ccc(F)cc1)c1cn(-c2ccc(Cl)cc2)c(-c2ccc(Cl)cc2Cl)n1 [Example 27]", "pKi": 7.20}
{"compound": "Cc1c(C(=O)NN2CCCCC2)nc(-c2ccc(Cl)cc2Cl)n1-c1ccc(F)cc1 [Example 62]", "pKi": 7.50}
{"compound": "O=C(NN1CCCCC1)c1nc(-c2ccc(Cl)cc2Cl)n(-c2ccc(Cl)cc2)c1Br [Example 117]", "pKi": 8.00}
{"compound": "O=C(NN1CCCCC1)c1cn(-c2ccc(C(F)(F)F)cc2)c(-c2ccc(Cl)cc2Cl)n1 [Example 46]", "pKi": 7.30}

# input for lookup
Query :: // pKi lookup, key: Cc1c(C(=O)NC2CCCCC2)nc(-c2ccccc2Cl)n1-c1cccc(F)c1 [Example 73]
Result :: 7.90

###

# experimental target: UniProt P21554
# assay overview: biochemical
# Format: binding
# Set-up: expressed in transfected cells; host or cells: Chinese hamster ovary (CHO) cells, membrane preparation
# assay context: hCB1 pKi, [3H]CP-55,940 radioligand; CHO cell membranes stably transfected with human CB1
measured endpoint: Ki (nM)
Answer in nM, number only, no unit symbol.

Previously resolved entries follow.
{"sample smiles": "COc1ccc(-n2c(-c3ccc(Cl)cc3Cl)nc(C(=O)NN3CCCCC3)c2C)cc1", "Ki / nM": 79.4}
{"sample smiles": "CCc1c(C(=O)NOC(C)(C)C)nc(-c2ccc(Cl)cc2Cl)n1-c1ccc(Cl)cc1", "Ki / nM": 100}
{"sample smiles": "CCc1c(C(=O)NN2CCCCC2)nc(-c2ccc(Cl)cc2Cl)n1-c1ccc(Br)cc1", "Ki / nM": 31.6}
{"sample smiles": "CN(Cc1ccccc1)C(=O)c1cn(-c2ccc(Cl)cc2)c(-c2ccc(Cl)cc2Cl)n1", "Ki / nM": 63.1}

Query :: // Ki lookup, key: CCc1c(C(=O)NN2CCCCC2)nc(-c2ccc(Cl)cc2Cl)n1-c1ccc(Cl)cn1
Result :: 100

Query :: // Ki lookup, key: Cc1c(C(=O)NC2CCCCC2)nc(-c2ccc(Cl)cc2Cl)n1-c1ccc(Cl)cn1
Result :: 100

Query :: // Ki lookup, key: CCc1c(C(=O)NN2CCCCC2)nc(-c2ccc(Cl)cc2Cl)n1-c1ccc(Cl)cc1
Result :: 10

Query :: // Ki lookup, key: CS(=O)(=O)c1c(C(=O)NC2CCCCC2)nc(-c2ccc(Cl)cc2Cl)n1-c1ccc(Cl)cc1
Result :: 63.1
